In this section we review reported Unadj Clint values for a set of molecules.
# Tested on: pooled primary human hepatocyte suspensions
# Assay procedure: Hepatic clearance assay (substrate depletion, LC-MS)
# Details: unadjusted hepatic intrinsic clearance, pooled primary human hepatocyte suspensions; Table S4; in µL/min/10^6 cells

| Molecule | Tested target | Unadj Clint |
| --- | --- | --- |
| O=S(=O)(Cl)C(F)(F)C(F)(F)C(F)(F)C(F)(F)C(F)(F)C(F)(F)C(F)(F)C(F)(F)F [Perfluoro-1-octanesulfonyl chloride] | pooled primary human hepatocyte suspensions | 0.00 |
| O=S(=O)(O)C(F)(F)C(F)(F)C(F)(F)C(F)(F)C(F)(F)C(F)(F)C(F)(F)C(F)(F)F [Perfluorooctanesulfonate] | pooled primary human hepatocyte suspensions | 0.00 |
| O=C(O)C(F)(F)C(F)(F)C(F)(F)C(F)(F)C(F)(F)F [PFHxA, Perfluorohexanoic acid] | pooled primary human hepatocyte suspensions | 1.62 |
| O=C(O)C(F)(F)C(F)(F)C(F)(F)C(F)(F)C(F)(F)C(F)(F)C(F)(F)C(F)(F)C(F)(F)F [PFDA, Perfluorodecanoic acid] | pooled primary human hepatocyte suspensions | 0.00 |
| O=S(=O)(O)C(F)(F)C(F)(F)C(F)(F)C(F)(F)C(F)(F)C(F)(F)C(F)(F)F [PFHpS, Perfluoroheptanesulfonic acid] | pooled primary human hepatocyte suspensions | 1.23 |
| O=C(O)C(F)(F)OC(F)(F)C(F)(F)OC(F)(F)F [Perfluoro-3,6-dioxaheptanoic acid] | pooled primary human hepatocyte suspensions | 0.00 |

---

# Tested on: pooled primary human hepatocyte suspensions
# Assay procedure: Hepatic clearance assay (substrate depletion, LC-MS)
# Details: unadjusted hepatic intrinsic clearance, pooled primary human hepatocyte suspensions; Table S4; in µL/min/10^6 cells
Listed next: entries and their corresponding Unadj Clint.
Measured metric: Unadj Clint

| Compound | Measured metric | Number |
| --- | --- | --- |
| C[N+](C)(C)CCCNS(=O)(=O)C(F)(F)C(F)(F)C(F)(F)C(F)(F)C(F)(F)C(F)(F)C(F)(F)C(F)(F)F.[I-] | Unadj Clint | 4.28 |
| O=C(O)C(F)(F)C(F)(F)C(F)(F)C(F)(F)C(F)(F)C(F)(F)C(F)(F)C(F)(F)C(F)(F)C(F)(F)C(F)(F)C(F)(F)C(F)(F)F | Unadj Clint | 0.00 |
| O=S(=O)(O)C(F)(F)C(F)(F)C(F)(F)C(F)(F)C(F)(F)C(F)(F)F | Unadj Clint | 1.52 |
| O=C(O)C(F)(F)C(F)(F)C(F)(F)C(F)(F)C(F)(F)C(F)(F)C(F)(F)C(F)(F)C(F)(F)C(F)(F)C(F)(F)C(F)(F)F | Unadj Clint | 0.00 |
| NS(=O)(=O)C(F)(F)C(F)(F)C(F)(F)C(F)(F)C(F)(F)C(F)(F)F [Perfluorohexanesulfonamide] | Unadj Clint | 0.00 |
| O=S(=O)(OCC(F)(F)F)C(F)(F)C(F)(F)C(F)(F)C(F)(F)F | Unadj Clint | 2.84 |

---

# Assay procedure: IVIVE: steady-state concentration (Css), generic HTTK model
# Set-up: species or system human
# Details: scaled to whole liver: HPGL 110 mill cells/g, Vl 1596 g

| Compound | CLint (µL/min) |
| --- | --- |
| O=S(=O)([O-])C(F)(F)C(F)(F)C(F)(F)C(F)(F)C(F)(F)C(F)(F)F.[K+] | 0 |
| O=S(=O)(OCC(F)(F)F)C(F)(F)C(F)(F)C(F)(F)C(F)(F)F | 0 |
| O=C(O)C(F)(F)C(F)(F)C(F)(F)C(F)(F)C(F)(F)F [Perfluorohexanoic acid (PFHxA)] | 0 |
| O=C([O-])C(F)(F)C(F)(F)C(F)(F)C(F)(F)C(F)(F)C(F)(F)C(F)(F)F.[Na+] [Sodium perfluorooctanoate (NaPFOA)] | 0 |
| N.O=C(O)C(F)(F)C(F)(F)C(F)(F)C(F)(F)C(F)(F)C(F)(F)C(F)(F)F [Ammonium perfluorooctanoate (NH4PFOA)] | 361654 |
| O=C(O)CCC(F)(F)C(F)(F)C(F)(F)C(F)(F)C(F)(F)C(F)(F)C(F)(F)F [7:3 FTCA, 3-Perfluoroheptylpropanoic acid] | 2319148 |
| C[N+](C)(C)CCCNS(=O)(=O)C(F)(F)C(F)(F)C(F)(F)C(F)(F)C(F)(F)C(F)(F)C(F)(F)C(F)(F)F.[I-] | 0 |
| O=C(O)C(F)(F)C(F)(F)C(F)(F)OC(F)(C(F)(F)F)C(F)(F)F | 1014737 |
| O=C(Cl)C(F)(F)C(F)(F)C(F)(F)C(F)(F)C(F)(F)C(F)(F)F [Perfluoroheptanoyl chloride (PFHpA-Cl)] | 0 |
| NS(=O)(=O)C(F)(F)C(F)(F)C(F)(F)C(F)(F)C(F)(F)C(F)(F)C(F)(F)C(F)(F)F [Perfluorooctane sulfonamide (PFOSA)] | 3131990 |
| O=C(O)C(F)(F)C(F)(F)OC(F)(F)F | 0 |
| O=C(O)C(F)(F)C(F)(F)C(F)(F)C(F)(F)C(F)(F)C(F)(F)C(F)(F)C(F)(F)C(F)(F)C(F)(F)C(F)(F)C(F)(F)F [Perfluorotridecanoic acid] | 0 |
| O=C(O)C(F)(F)C(F)(F)C(F)(F)C(F)(F)C(F)(F)C(F)(F)C(F)(F)C(F)(F)C(F)(F)C(F)(F)F [Perfluoroundecanoic acid (PFUnDA)] | 0 |
| O=C(Cl)C(F)(F)C(F)(F)C(F)(F)C(F)(F)C(F)(F)C(F)(F)C(F)(F)F | 0 |
| O=C(O)C(F)(F)OC(F)(F)C(F)(F)OC(F)(F)F | 0 |
| O=C(O)C(F)(F)OC(F)(F)C(F)(F)OC(F)(F)C(F)(F)C(F)(F)C(F)(F)F [Perfluoro-3,6-dioxadecanoic acid] | 0 |
| O=C(O)C(F)(F)C(F)(F)C(F)(F)C(F)(F)C(F)(F)C(F)(F)F [Perfluoroheptanoic acid (PFHpA)] | 0 |
| CCNS(=O)(=O)C(F)(F)C(F)(F)C(F)(F)C(F)(F)C(F)(F)C(F)(F)C(F)(F)C(F)(F)F | 1573018 |
